target: Aurora kinase B (Homo sapiens, UniProt Q96GD4)
Sequence (Q96GD4 whole entry): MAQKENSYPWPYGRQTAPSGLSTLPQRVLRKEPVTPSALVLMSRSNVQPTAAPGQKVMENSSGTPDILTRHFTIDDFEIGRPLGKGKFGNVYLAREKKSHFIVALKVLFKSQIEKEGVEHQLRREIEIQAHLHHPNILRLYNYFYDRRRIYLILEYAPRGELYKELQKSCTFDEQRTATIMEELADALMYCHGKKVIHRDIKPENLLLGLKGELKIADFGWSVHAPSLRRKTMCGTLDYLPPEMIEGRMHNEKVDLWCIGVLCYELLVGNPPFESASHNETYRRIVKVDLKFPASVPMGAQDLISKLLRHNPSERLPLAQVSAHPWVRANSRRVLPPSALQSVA
pIC50: −log10 of the molar value.
measured.attribute: pIC50

For Aurora kinase B (Homo sapiens, UniProt Q96GD4), give pIC50 of the listed molecule: CS(=O)(=O)O.Cc1oc2c(O)c3c(c(O)c2c1C(=O)N1CC[C@H](N)C1)C(=O)c1ccccc1C3=O
> 5.30

----------
molecular target: Mitogen-activated protein kinase kinase kinase 7 (Homo sapiens, UniProt O43318); assay: Inhibition of human MAP3K7 by flashplate based radiometric 33pan-quinase assay
Sequence (O43318 whole entry): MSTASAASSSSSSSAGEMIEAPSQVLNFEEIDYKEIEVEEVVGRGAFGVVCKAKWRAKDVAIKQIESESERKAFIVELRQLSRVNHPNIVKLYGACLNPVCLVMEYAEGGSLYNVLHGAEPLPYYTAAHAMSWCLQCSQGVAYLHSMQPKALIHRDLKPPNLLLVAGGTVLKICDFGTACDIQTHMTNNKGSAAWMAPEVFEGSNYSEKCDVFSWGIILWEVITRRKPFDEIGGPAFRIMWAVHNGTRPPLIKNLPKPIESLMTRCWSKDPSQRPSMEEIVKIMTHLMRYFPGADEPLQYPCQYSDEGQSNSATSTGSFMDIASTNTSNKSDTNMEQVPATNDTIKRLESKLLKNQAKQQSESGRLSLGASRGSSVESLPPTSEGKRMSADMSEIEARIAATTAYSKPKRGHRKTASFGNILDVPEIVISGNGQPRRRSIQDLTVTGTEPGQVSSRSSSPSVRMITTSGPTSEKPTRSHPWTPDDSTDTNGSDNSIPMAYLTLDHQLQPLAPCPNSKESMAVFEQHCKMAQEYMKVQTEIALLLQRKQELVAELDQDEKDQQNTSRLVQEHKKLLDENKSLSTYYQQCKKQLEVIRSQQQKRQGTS
measured.attribute: IC50

Give the measured IC50 for CS(=O)(=O)O.Cc1oc2c(O)c3c(c(O)c2c1C(=O)N1CC[C@H](N)C1)C(=O)c1ccccc1C3=O
< 5 µM

----------
molecular target: Aurora kinase C (Homo sapiens, UniProt Q9UQB9)
Sequence (Q9UQB9 whole entry): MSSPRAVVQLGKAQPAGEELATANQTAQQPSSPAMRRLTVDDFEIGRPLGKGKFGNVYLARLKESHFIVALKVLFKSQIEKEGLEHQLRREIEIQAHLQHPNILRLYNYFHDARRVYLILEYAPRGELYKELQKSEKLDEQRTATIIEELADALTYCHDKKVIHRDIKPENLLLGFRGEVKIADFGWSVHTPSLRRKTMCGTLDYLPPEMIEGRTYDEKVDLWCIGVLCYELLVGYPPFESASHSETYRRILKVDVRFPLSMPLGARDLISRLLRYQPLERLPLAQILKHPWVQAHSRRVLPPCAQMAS
pIC50: −log10 of the molar value.
measured.attribute: pIC50

Send back Aurora kinase C (Homo sapiens, UniProt Q9UQB9) pIC50 of CS(=O)(=O)O.Cc1oc2c(O)c3c(c(O)c2c1C(=O)N1CC[C@H](N)C1)C(=O)c1ccccc1C3=O only.
> 5.30

----------
biological target: Serine/threonine-protein kinase pim-1 (Homo sapiens, UniProt P11309)
Sequence (P11309 whole entry): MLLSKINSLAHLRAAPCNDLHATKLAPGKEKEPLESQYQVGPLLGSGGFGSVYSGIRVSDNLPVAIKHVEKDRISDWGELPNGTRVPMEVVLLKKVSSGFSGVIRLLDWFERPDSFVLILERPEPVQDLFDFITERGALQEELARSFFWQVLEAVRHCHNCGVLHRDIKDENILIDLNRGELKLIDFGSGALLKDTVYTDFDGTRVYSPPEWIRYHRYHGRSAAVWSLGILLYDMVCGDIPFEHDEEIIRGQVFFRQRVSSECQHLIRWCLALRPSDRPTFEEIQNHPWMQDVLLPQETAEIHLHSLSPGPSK
measured.attribute: IC50

Enter IC50 (test system Serine/threonine-protein kinase pim-1 (Homo sapiens, UniProt P11309)) for CS(=O)(=O)O.Cc1oc2c(O)c3c(c(O)c2c1C(=O)N1CC[C@H](N)C1)C(=O)c1ccccc1C3=O
< 5 µM

----------
target: Dual serine/threonine and tyrosine protein kinase (Homo sapiens); experiment: Inhibition of human RIPK5 by flashplate based radiometric 33pan-quinase assay
Sequence (Q6XUX3 whole entry): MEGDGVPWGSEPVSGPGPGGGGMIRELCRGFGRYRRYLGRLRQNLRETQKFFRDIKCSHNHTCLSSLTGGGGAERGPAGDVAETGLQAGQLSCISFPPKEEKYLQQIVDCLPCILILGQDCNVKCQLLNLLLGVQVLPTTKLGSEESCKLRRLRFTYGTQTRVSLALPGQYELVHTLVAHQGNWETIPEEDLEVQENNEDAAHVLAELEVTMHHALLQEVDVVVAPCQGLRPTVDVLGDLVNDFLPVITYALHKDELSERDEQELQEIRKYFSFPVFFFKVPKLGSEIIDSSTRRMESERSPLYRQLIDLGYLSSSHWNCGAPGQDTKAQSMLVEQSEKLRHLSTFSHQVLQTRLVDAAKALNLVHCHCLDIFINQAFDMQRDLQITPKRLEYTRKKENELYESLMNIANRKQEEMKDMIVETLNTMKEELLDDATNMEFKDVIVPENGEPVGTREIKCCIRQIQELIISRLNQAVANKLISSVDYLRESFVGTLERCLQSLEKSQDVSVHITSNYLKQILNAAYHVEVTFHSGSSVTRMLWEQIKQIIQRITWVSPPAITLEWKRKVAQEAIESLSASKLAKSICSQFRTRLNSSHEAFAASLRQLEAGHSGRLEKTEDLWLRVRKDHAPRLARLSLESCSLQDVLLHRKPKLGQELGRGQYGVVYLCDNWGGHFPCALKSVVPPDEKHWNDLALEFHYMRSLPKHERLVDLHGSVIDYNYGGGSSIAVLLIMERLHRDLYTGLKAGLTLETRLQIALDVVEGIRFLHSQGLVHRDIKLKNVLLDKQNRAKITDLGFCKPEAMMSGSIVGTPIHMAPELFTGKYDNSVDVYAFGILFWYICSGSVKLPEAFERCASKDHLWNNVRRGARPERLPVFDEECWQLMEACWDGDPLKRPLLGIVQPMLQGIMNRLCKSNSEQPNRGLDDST
measured.attribute: IC50

Fill in reported IC50 for this entry: CS(=O)(=O)O.Cc1oc2c(O)c3c(c(O)c2c1C(=O)N1CC[C@H](N)C1)C(=O)c1ccccc1C3=O
< 5 µM

----------
assay: Toxicity in ip dosed DBA2/BDF1 mouse transplanted with mouse P388 cells dosed daily for 5 days; format: organism-based; details: in vivo
MTD at 120 h reference
For clarity, give the value followed by its unit.

{"columns": ["structure.smiles.string", "experimental.value"],
 "data": [
  ["CS(=O)(=O)O.Cc1oc2c(O)c3c(c(O)c2c1C(=O)N1CC[C@H](N)C1)C(=O)c1ccccc1C3=O", "30 mg/kg"]
]}

Please examine the following record next.
Identify measured MTD at 120 h associated with CS(=O)(=O)O.Cc1oc2c(O)c3c(c(O)c2c1C(=O)N1CC[C@@H](N)C1)C(=O)c1ccccc1C3=O
50 mg/kg
